src = patent EP3838286B1

Test system: PC-3
Assay: Antitumor / antiproliferative activity (resazurin)
Type: cell-based
Details: Homo sapiens, prostate cancer cells, 5,000 cells/well, 48 h, read-out: IC50 antiproliferative effect PC-3
Protocol: Human cancer cell lines (Mia PaCa-2 (CRL-1420), PC-3 (CRL-1435), MDA-MB-231 (HTB-26)) and normal lung fibrobasts (BEAS-2B (ATCC CRL-9609) and IMR-90 (ATCC CCL-186)) were obtained from American Type Culture Collection (ATCC). HUVEC cells were obtained from Sigma Aldrich and were grown in defined all-in-one ready to use endothelial cell growth medium (Sigma Aldrich). […] The fluorescence values were normalized by the controls (buffer treated cells) and expressed as per-cent viability. […]
MEASUREMENT_LABEL: IC50

Name the reported IC50 value associated with the compound COc1cccc2c1C(=O)c1c(O)c3c(c(O)c1C2=O)C[C@@](O)(C(=O)CO)C[C@@H]3O[C@H]1C[C@H](N)[C@H](O)[C@H](C)O1 315 nM

----------
Assay: Cytotoxicity assay (resazurin)
Assay type: cell-based
Conditions: human, HUVEC (human umbilical vein endothelial cells), normal endothelium, read-out: Cytotoxicity IC50 (µM) HUVEC
Ends that are not written are not given here.
MEASUREMENT_LABEL: CC50 at 48 h (µM)
Numeric answer only, unit µM assumed.

Name the reported CC50 at 48 h value associated with the substance ILKAIKKLLKN-NH2 [I1N11] 826

----------
Test system: V. alginolyticus
Square brackets hold non-standard residues; d marks the D form. Peptide text beside a SMILES is read from it.
A collection of molecules and their measured MIC (µM) V. alginolyticus
Numeric answer only, unit µM assumed.

Worked examples follow.
[[record]]
molecule = "CC[C@@H](C)[C@@H](N)C(=O)N[C@@H](CC(C)C)C(=O)N[C@@H](CCCCN)C(=O)N[C@@H](C)C(=O)N[C@H](C(=O)N[C@@H](CCCCN)C(=O)N[C@@H](CCCCN)C(=O)N[C@@H](CC(C)C)C(=O)N[C@@H](CC(C)C)C(=O)N[C@H](CCCCN)C(N)=O)[C@@H](C)CC [i1k10*] (H-[dI]LKAIKKLL[dK]-NH2)"
assay_result = 0.78

[[record]]
molecule = "CC[C@@H](C)[C@@H](N)C(=O)N[C@@H](CC(C)C)C(=O)N[C@@H](CCCCN)C(=O)N[C@@H](C)C(=O)N[C@H](C(=O)N[C@@H](CCCCN)C(=O)N[C@@H](CCCCN)C(=O)N[C@@H](CC(C)C)C(=O)N[C@@H](CC(C)C)C(=O)N[C@@H](CCCCN)C(=O)N[C@H](CC(N)=O)C(N)=O)[C@@H](C)CC [LTX-gallicune-1(i1D-n11D)] (H-[dI]LKAIKKLLK[dN]-NH2)"
assay_result = 0.78


Now for the molecule whose MIC (µM) V. alginolyticus we want.
Name the reported MIC (µM) V. alginolyticus value associated with the molecule CC[C@@H](C)[C@@H](N)C(=O)N[C@H](CC(C)C)C(=O)N[C@H](CCCCN)C(=O)N[C@H](C)C(=O)N[C@@H](C(=O)N[C@H](CCCCN)C(=O)N[C@H](CCCCN)C(=O)N[C@H](CC(C)C)C(=O)N[C@H](CC(C)C)C(=O)N[C@H](CCCCN)C(=O)N[C@H](CC(N)=O)C(N)=O)[C@H](C)CC [LTX-D (gallicune-1), ilkaikkllkn] (H-[dI][dL][dK][dA][dI][dK][dK][dL][dL][dK][dN]-NH2) 0.78

----------
Assay: Cytotoxicity assay (resazurin)
Type: cell-based
Settings: human, HUVEC (human umbilical vein endothelial cells), normal endothelium, read-out: Cytotoxicity IC50 (µM) HUVEC
Protocol: Normal human cells used were BEAS-2B (ATCC CRL-9609), IMR-90 (ATCC CCL-186) and Human Umbilical Vein Endothelial Cells (HUVEC) (from Sigma-Aldrich) corresponding respectively to human normal lung epithelial, normal lung fibroblast cells and human normal endothelial cells. […] At the end of the incubation, wells were emptied and cell viability was evaluated using Resazurin based in vitro toxicity assay kit (from Sigma-Aldrich) following manufacturer's instructions. […]
Square brackets hold non-standard residues; d marks the D form. Peptide text beside a SMILES is read from it.
MEASUREMENT_LABEL: CC50 at 48 h
Remember to follow the number with its unit.

[[record]]
compound = "CC[C@@H](C)[C@@H](N)C(=O)N[C@H](CC(C)C)C(=O)N[C@H](CCCCN)C(=O)N[C@H](C)C(=O)N[C@@H](C(=O)N[C@H](CCCCN)C(=O)N[C@H](CCCCN)C(=O)N[C@H](CC(C)C)C(=O)N[C@H](CC(C)C)C(=O)N[C@H](CCCCN)C(N)=O)[C@H](C)CC [(i1k10*) enantio, ilkaikkllk] (H-[dI][dL][dK][dA][dI][dK][dK][dL][dL][dK]-NH2)"
assay_result = "683 µM"

[[record]]
compound = "CC[C@@H](C)[C@@H](N)C(=O)N[C@@H](CC(C)C)C(=O)N[C@@H](CCCCN)C(=O)N[C@@H](C)C(=O)N[C@H](C(=O)N[C@@H](CCCCN)C(=O)N[C@@H](CCCCN)C(=O)N[C@@H](CC(C)C)C(=O)N[C@@H](CC(C)C)C(=O)N[C@H](CCCCN)C(N)=O)[C@@H](C)CC [i1k10*] (H-[dI]LKAIKKLL[dK]-NH2)"
assay_result = "814 µM"

[[record]]
compound = "CC[C@@H](C)[C@@H](N)C(=O)N[C@@H](CC(C)C)C(=O)N[C@@H](CCCCN)C(=O)N[C@@H](C)C(=O)N[C@H](C(=O)N[C@@H](CCCCN)C(=O)N[C@@H](CCCCN)C(=O)N[C@@H](CC(C)C)C(=O)N[C@@H](CC(C)C)C(=O)N[C@@H](CCCCN)C(=O)N[C@H](CC(N)=O)C(N)=O)[C@@H](C)CC [LTX-gallicune-1(i1D-n11D)] (H-[dI]LKAIKKLLK[dN]-NH2)"
assay_result = "436 µM"


Now for the compound whose CC50 at 48 h we want.
Name the reported CC50 at 48 h value associated with the compound CC[C@@H](C)[C@@H](N)C(=O)N[C@H](CC(C)C)C(=O)N[C@H](CCCCN)C(=O)N[C@H](C)C(=O)N[C@@H](C(=O)N[C@H](CCCCN)C(=O)N[C@H](CCCCN)C(=O)N[C@H](CC(C)C)C(=O)N[C@H](CC(C)C)C(=O)N[C@H](CCCCN)C(=O)N[C@H](CC(N)=O)C(N)=O)[C@H](C)CC [LTX-D (gallicune-1), ilkaikkllkn] (H-[dI][dL][dK][dA][dI][dK][dK][dL][dL][dK][dN]-NH2) 869 µM

----------
Test: Cytotoxicity assay (resazurin)
Format: cell-based
Settings: human, BEAS-2B normal lung epithelial cells, normal lung epithelium, read-out: Cytotoxicity IC50 (µM) BEAS
Square brackets hold non-standard residues; d marks the D form. Peptide text beside a SMILES is read from it.
MEASUREMENT_LABEL: CC50 at 48 h (µM)
Numeric answer only, unit µM assumed.

Worked examples follow.
[[record]]
molecule = "CC[C@@H](C)[C@@H](N)C(=O)N[C@@H](CC(C)C)C(=O)N[C@@H](CCCCN)C(=O)N[C@@H](C)C(=O)N[C@H](C(=O)N[C@@H](CCCCN)C(=O)N[C@@H](CCCCN)C(=O)N[C@@H](CC(C)C)C(=O)N[C@@H](CC(C)C)C(=O)N[C@H](CCCCN)C(N)=O)[C@@H](C)CC [i1k10*] (H-[dI]LKAIKKLL[dK]-NH2)"
measurement_label = "CC50 at 48 h"
scale_unit = "µM"
assay_result = 867

[[record]]
molecule = "CC[C@@H](C)[C@@H](N)C(=O)N[C@H](CC(C)C)C(=O)N[C@H](CCCCN)C(=O)N[C@H](C)C(=O)N[C@@H](C(=O)N[C@H](CCCCN)C(=O)N[C@H](CCCCN)C(=O)N[C@H](CC(C)C)C(=O)N[C@H](CC(C)C)C(=O)N[C@H](CCCCN)C(=O)N[C@H](CC(N)=O)C(N)=O)[C@H](C)CC [LTX-D (gallicune-1), ilkaikkllkn] (H-[dI][dL][dK][dA][dI][dK][dK][dL][dL][dK][dN]-NH2)"
measurement_label = "CC50 at 48 h"
scale_unit = "µM"
assay_result = 843

[[record]]
molecule = "CC[C@@H](C)[C@@H](N)C(=O)N[C@H](CC(C)C)C(=O)N[C@H](CCCCN)C(=O)N[C@H](C)C(=O)N[C@@H](C(=O)N[C@H](CCCCN)C(=O)N[C@H](CCCCN)C(=O)N[C@H](CC(C)C)C(=O)N[C@H](CC(C)C)C(=O)N[C@H](CCCCN)C(N)=O)[C@H](C)CC [(i1k10*) enantio, ilkaikkllk] (H-[dI][dL][dK][dA][dI][dK][dK][dL][dL][dK]-NH2)"
measurement_label = "CC50 at 48 h"
scale_unit = "µM"
assay_result = 726


Now for the molecule whose CC50 at 48 h we want.
Name the reported CC50 at 48 h value associated with the molecule CC[C@@H](C)[C@@H](N)C(=O)N[C@@H](CC(C)C)C(=O)N[C@@H](CCCCN)C(=O)N[C@@H](C)C(=O)N[C@H](C(=O)N[C@@H](CCCCN)C(=O)N[C@@H](CCCCN)C(=O)N[C@@H](CC(C)C)C(=O)N[C@@H](CC(C)C)C(=O)N[C@@H](CCCCN)C(=O)N[C@H](CC(N)=O)C(N)=O)[C@@H](C)CC [LTX-gallicune-1(i1D-n11D)] (H-[dI]LKAIKKLLK[dN]-NH2) 391
